FYI, the data here is from the NIST ThermoML archive (doi:10.1021/je060170c).

# CONDITION DESCRIPTION: 293.15 K; 101 kPa; Liquid
The compounds listed here are annotated with their speed of sound.
Give the value in m/s but do not write m/s after it.

Cc1cccc(C)c1 [1,3-dimethylbenzene] : 1357
COc1ccccc1 [anisole] : 1428.5
Cc1ccccc1C [1,2-dimethylbenzene] : 1369.7

speed of sound measured on Cc1cc(C)cc(C)c1 [1,3,5-trimethylbenzene] = 1357

* * *

The compounds listed here are annotated with their mass density.
# CONDITION DESCRIPTION: 288.15 K; 101 kPa; Liquid
Give the value in kg/m3 but do not write kg/m3 after it.

Cc1cc(C)cc(C)c1 [1,3,5-trimethylbenzene] : 869.169
Cc1cccc(C)c1 [1,3-dimethylbenzene] : 868.317
c1ccccc1 [benzene] : 884.184

mass density measured on Cc1ccccc1C [1,2-dimethylbenzene] = 883.285

mass density measured on Cc1ccccc1 [toluene] = 871.412

mass density measured on Cc1ccc(C)cc1 [1,4-dimethylbenzene] = 865.253

* * *

# CONDITION DESCRIPTION: 303.15 K; 101 kPa; Liquid
The compounds listed here are annotated with their speed of sound.
Give the value in m/s but do not write m/s after it.

The cases that follow already have their speed of sound on record.
c1ccccc1 [benzene] : 1276.4
Cc1ccccc1C [1,2-dimethylbenzene] : 1328.3

speed of sound measured on Cc1ccccc1 [toluene] = 1283.8

speed of sound measured on Cc1cccc(C)c1 [1,3-dimethylbenzene] = 1300.3

speed of sound measured on Cc1cc(C)cc(C)c1 [1,3,5-trimethylbenzene] = 1316.8

speed of sound measured on Cc1ccc(C)cc1 [1,4-dimethylbenzene] = 1289.7

* * *

# CONDITION DESCRIPTION: 293.15 K; 101 kPa; Liquid
The compounds listed here are annotated with their mass density.
Give the value in kg/m3 but do not write kg/m3 after it.

The cases that follow already have their mass density on record.
Cc1ccccc1C : 879.083
Cc1cccc(C)c1 : 864.049
Cc1ccc(C)cc1 : 860.917
c1ccccc1 : 877.43
Cc1ccccc1 : 866.874

mass density measured on Cc1cc(C)cc(C)c1 = 865.072

* * *

# CONDITION DESCRIPTION: 298.15 K; 101 kPa; Liquid; Anton Paar Stabinger viscometer
MEASURED PROPERTY: viscosity (mPa·s)
Give the value in mPa·s but do not write mPa·s after it.

The cases that follow already have their viscosity on record.
Cc1ccc(C)cc1 : 0.611
Cc1cc(C)cc(C)c1 : 0.661

Attention now turns to another entry.
viscosity measured on c1ccccc1 = 0.604

* * *

The compounds listed here are annotated with their speed of sound.
# CONDITION DESCRIPTION: 293.15 K; 101 kPa; Liquid
Give the value in m/s but do not write m/s after it.

The cases that follow already have their speed of sound on record.
Cc1ccccc1 : 1327.2
Cc1ccc(C)cc1 : 1331.1

Attention now turns to another entry.
speed of sound measured on c1ccccc1 = 1323.3
